system: E. faecalis VRE 53; assay: MIC, broth microdilution, vancomycin-resistant E. faecalis VRE 53 (VanA); format: cell-based, Enterococcus faecalis; details: VRE 53; ratio of MIC of vancomycin and MIC of analogue
The entries below are paired with their reported MIC-fold improvement vs. vancomycin.
Give your answer as a number; write no unit.

Some solved entries appear below for comparison.
{"columns": ["compound", "endpoint.name", "data.value"],
 "data": [
  ["CNC(CC(C)C)C(=O)NC1C(=O)NC(CC(N)=O)C(=O)NC2C(=O)NC3C(=O)NC(C(=O)NC(C(=O)NCCCNC(=O)c4cc5cc(F)ccc5[nH]4)c4cc(O)cc(O)c4-c4cc3ccc4O)C(O)c3ccc(c(Cl)c3)Oc3cc2cc(c3OC2OC(CO)C(O)C(O)C2OC2CC(C)(N)C(O)C(C)O2)Oc2ccc(cc2Cl)C1O (stereo not drawn) [Vanc-45]", "MIC-fold improvement vs. vancomycin", 16],
  ["CC(=O)NC[C@H]1CN(c2ccc(N3CCOCC3)c(F)c2)C(=O)O1 [Linezolid, reference compound]", "MIC-fold improvement vs. vancomycin", 64],
  ["CNC(CC(C)C)C(=O)NC1C(=O)NC(CC(N)=O)C(=O)NC2C(=O)NC3C(=O)NC(C(=O)NC(C(=O)NCCCNC(=O)c4ccc5cc(NS(=O)(=O)c6ccc(C(C)C)cc6)ccc5c4)c4cc(O)cc(O)c4-c4cc3ccc4O)C(O)c3ccc(c(Cl)c3)Oc3cc2cc(c3OC2OC(CO)C(O)C(O)C2OC2CC(C)(N)C(O)C(C)O2)Oc2ccc(cc2Cl)C1O (stereo not drawn) [Vanc-66]", "MIC-fold improvement vs. vancomycin", 16],
  ["CN[C@H](CC(C)C)C(=O)N[C@H]1C(=O)N[C@@H](CC(N)=O)C(=O)N[C@H]2C(=O)N[C@H]3C(=O)N[C@H](C(=O)N[C@H](C(=O)NCC(=O)Nc4ccc(-c5cn(-c6ccccc6)nn5)cc4)c4cc(O)cc(O)c4-c4cc3ccc4O)[C@H](O)c3ccc(c(Cl)c3)Oc3cc2cc(c3O[C@@H]2O[C@H](CO)[C@@H](O)[C@H](O)[C@H]2O[C@H]2C[C@](C)(N)[C@H](O)[C@H](C)O2)Oc2ccc(cc2Cl)[C@H]1O [Vanc-77]", "MIC-fold improvement vs. vancomycin", 64],
  ["CN[C@H](CC(C)C)C(=O)N[C@H]1C(=O)N[C@@H](CC(N)=O)C(=O)N[C@H]2C(=O)N[C@H]3C(=O)N[C@H](C(=O)N[C@H](C(=O)NCC(=O)Nc4ccc(C)cc4Cl)c4cc(O)cc(O)c4-c4cc3ccc4O)[C@H](O)c3ccc(c(Cl)c3)Oc3cc2cc(c3O[C@@H]2O[C@H](CO)[C@@H](O)[C@H](O)[C@H]2O[C@H]2C[C@](C)(N)[C@H](O)[C@H](C)O2)Oc2ccc(cc2Cl)[C@H]1O [Vanc-2]", "MIC-fold improvement vs. vancomycin", 16]
]}

Next compound, please.
Input line: Any idea what MIC-fold improvement vs. vancomycin was measured for CNC(CC(C)C)C(=O)NC1C(=O)NC(CC(N)=O)C(=O)NC2C(=O)NC3C(=O)NC(C(=O)NC(C(=O)NCC(=O)Nc4ccc(C(=O)c5ccccc5)cc4)c4cc(O)cc(O)c4-c4cc3ccc4O)C(O)c3ccc(c(Cl)c3)Oc3cc2cc(c3OC2OC(CO)C(O)C(O)C2OC2CC(C)(N)C(O)C(C)O2)Oc2ccc(cc2Cl)C1O (stereo not drawn) [Vanc-88] ?
Output line: 32
